Molecular target: PcrV of P. aeruginosa strain PA103 (on TTSS-induced bacteria) (Pseudomonas aeruginosa strain PA103)
Assay: cell-based or functional assay
Readout Type: IC50 (nM), P3X63 cytotoxicity assay, MOI 4
Write down the numeric answer in nM and omit the unit.

Here are 2 binders together with their reported answers.
Lookup result for Nanobody 7C10 (VHH) VHH: EVQLVESGGGLVQAGGSLRLSCTASGRTLSSYTMGWFRQAPGTEREFVAAMTRSGFNTYYADSVKGRFTISRDSTENTMALQMSSLKPEDTAVYYCTAGRGLTSYRADYWGQGTLVTVSS ; measured IC50 (nM), P3X63 cytotoxicity assay, MOI 4: 42

Recorded IC50 (nM), P3X63 cytotoxicity assay, MOI 4 (binder Nanobody 3E10 (VHH) VHH: EVQLVESGGGLVQAGGSLRLSCTASGHTFSSYTMGWFRQAPGKEREFVAAMTRSGFNTHYSDSVKGRFTISRDNTSRDNTKITMALQMNSLKPEDTAVYYCTTGRGLTSYVANFWGQGTQVTVSS ): 48

Next item in the queue.
Just so you know, measured IC50 (nM), P3X63 cytotoxicity assay, MOI 4 for Nanobody 3B11 (VHH) VHH: EVQLVESGGGLVQAGGSLRLSCAASGFTFDDYVIGWFRQAPGKEREGVSCISRLDGRTYYTDSVKGRFTISSDNAKNTVYLQMNSLKPEDTAVYYCALEPRYTGDYYPVHPELYDYWGQGTQVTVSS came out at 1140
